// data source = patent US20130251728A1

testTarget: T1, mfGCGR-hFc (cynomolgus monkey (Macaca fascicularis))
T1 construct: also called mfGCGR-N-terminal hFc
T1 sequence (chain, as listed by the source limits assumed): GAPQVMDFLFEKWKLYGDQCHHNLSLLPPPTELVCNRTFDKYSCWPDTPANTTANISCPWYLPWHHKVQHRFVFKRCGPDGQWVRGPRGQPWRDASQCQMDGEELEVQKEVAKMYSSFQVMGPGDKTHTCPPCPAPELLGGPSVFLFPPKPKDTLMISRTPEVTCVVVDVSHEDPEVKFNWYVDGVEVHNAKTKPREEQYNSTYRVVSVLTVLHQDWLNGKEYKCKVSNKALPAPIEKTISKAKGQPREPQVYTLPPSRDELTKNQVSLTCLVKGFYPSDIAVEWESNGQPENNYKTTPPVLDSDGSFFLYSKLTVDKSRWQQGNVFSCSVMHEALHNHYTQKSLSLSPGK
assayProcedure: SPR Biacore T100, 37C, mAb captured, antigen flowed
measurementName: Kd

INSERT INTO assay_data (binder, value) VALUES
  ('H4H1328P (antibody, V domains shown, Fully human anti-GCGR antibody; the controls are called isotype-matched hIgG4) VH: EVQLVESGGALVQPGGSLRLSCTASGFTFSNYDMHWVRQTTGKGLEWISAIDTAGDTYYPGSVKGRFTVSRENAKNSFYLQMNSLRAGDTAVYYCAREGKYYDILTGDYHYYGMDVWGQGTTVTVS VL: DIQMTQSPSSLSASVGDRVTITCRASQGIRNDLGWYQQKPGKAPKRLIYATSSLQSGVPSRFSGSGSGTEFTLTISSLQPEDFATYYCLQHNSYPLTFGGGTKLEIK', '35.3 pM'),
  ('H4H1321P (antibody, V domains shown, Fully human anti-GCGR antibody; the controls are called isotype-matched hIgG4) VH: QVQLVESGGGVVQPGRSLRLSCAASGFTFSSYDMHWVRQAPGKGLEWVAVISSDGRDKYYVDSVKGRFTISRDNSKNTLYLQMNSLRAEDTAVYYCAKEMVYYDILTGYHNYYGMDVWGQGTTVTVS VL: DIQMTQSPSSLSASVGDRVTITCRASQGINNYLAWFQQKPGKAPKSLIHTASSLQSGVPSKFSGSGSGTDFTLTISSLQPEDFATYYCQQYNTYPLTFGGGTKVEIK', '34.7 pM'),
  ('H4H1765N (antibody, V domains shown, Anti-GCGR antibody from hybridoma; the controls are called isotype-matched hIgG4) VH: EEQLVESGGDLVQPGGSLRLSCAASGFTLSSYEMNWVRQAPGKGLEWVSYISRGGSLIHYTDSVKGRFTISRDNAKNSLYLQMNSLRAEDTAVYYCVRDPAARYHYYYHGMDVWGQGTTVTVSS VL: DIVMTQSPLSLPVTPGEPASISCRSSQSLLHNNGYNYLDWYLQKPGQSPQLLIYLGSSRASGVPDRFSGSGSGTDFILKISRVEAEDVGVYYCMQALQTPWTFGRGTKVEIK', '16.4 pM'),
  ('H4H1339P (antibody, V domains shown, Fully human anti-GCGR antibody; the controls are called isotype-matched hIgG4) VH: EVQLVESGGGMVQPGGSLRLSCAASGFTSSNYDMHWVRQATGKGLEWVSSIDTAGDTYYPDSVKGRFIISRENAKNSLYLQMNSLRAGDTAVYYCTREPRNYEILTGHYHYHGMDIWGQGTTVTVS VL: AIQMTQSPSSLSASVGDRVTITCRASQAIRNDLGWYQQKPGKAPKLLIYTAFSLQSGVPSRFSGSKSGTDFTLTISSLQPEDFATYYCLQDYTNPRTFGQGTKVEIK', '63.1 pM'),
  ('H4H1331P (antibody, V domains shown, Fully human anti-GCGR antibody; the controls are called isotype-matched hIgG4) VH: QVQLVESGGGVVQPGRSLRLSCAASGFTFSNFGMHWVRQAPGKGLEWVAVIWFDEIDKYYADSVKGRFTISRDNSKNTLYPQMNSLRAEDTAVYYCAREDYDILTGYYYAMDVWGQGTTVTVS VL: DIQMTQSPSSLSASVGDRVTITCRASQGIKNDLGWYQQKPGKAPKRLIYAASRLQSGVPSRFSGSGSGTEFTLTISSLQPEDFGTYYCLQHNSHPTFGQGTKVEIK', '25.7 pM'),
  ('H4H1327P (antibody, V domains shown, also called anti-GCGR (hIgG4) antibody designated H4H1327P) VH: EVQLVESGGGLVQPGGSLRLSCAASGFTFSNYLMNWVRQAPGKGLEWLANIQEDGIEKYYVDSVKGRFTISRDNAKNSLYLQMNSLRAEDTAVYYCAREPSHYDILTGYDYYYGMDVWGQGTTVTVS VL: DIQMTQSPSSLSASVGDRVTITCRASQGIRNDLGWYQQKPGKAPKRLIYAASSLQSGVPSRFSGSGSGTEFILTVSSLQPEDFATYYCLQYNSNPFTFGPGTKVDIK', '35.7 pM');
